# Experiment Summary: in vitro
# Run Parameters: human, hela cells, % viability
Assay Endpoint: viability at 28.5 h, 10 µM (%)
Only the number, expressed in %, is required.

The following compounds have reported results that may help.
>  <Compound>
CCOC(=O)C(NC(=O)c1cc[nH]c(=O)c1)c1cccc(C)c1C (stereo not shown) [CBK304174]

>  <viability at 28.5 h, 10 µM, %>
97.1

$$$$
>  <Compound>
COCC(=O)N1CC[C@H](c2nnc(-c3ccncc3)o2)C1 [CBK289413]

>  <viability at 28.5 h, 10 µM, %>
88

$$$$
>  <Compound>
COc1cc([C@@H]2c3cc4c(cc3[C@H](O)[C@H]3COC(=O)[C@@H]23)OCO4)cc(OC)c1OC [CBK051004]

>  <viability at 28.5 h, 10 µM, %>
36.3

$$$$
>  <Compound>
COCCNc1nc(-c2ccc3[nH]ccc3c2)ccc1C(=O)N1CCN(C)CC1 [CBK105956]

>  <viability at 28.5 h, 10 µM, %>
92.2

$$$$
>  <Compound>
Cn1ccc(C2CCCCCN2C(=O)Cc2cccs2)n1 (stereo not shown) [CBK283047]

>  <viability at 28.5 h, 10 µM, %>
86.5

$$$$
>  <Compound>
O=C(Nc1ccc(-c2cccc(F)c2)cc1)c1ccccc1Cn1cncn1 [CBK285565]

>  <viability at 28.5 h, 10 µM, %>
95.6

$$$$

Answer with reported viability at 28.5 h, 10 µM of Cc1n[nH]c(C)c1C12CC3CC(CC(CC(=O)O)(C3)C1)C2 [CBK288241]
92.2

Answer with reported viability at 28.5 h, 10 µM of CCCn1ncc(CN2CCC(c3cc4cccnc4[nH]3)CC2)c1C [CBK284949]
97.2

Answer with reported viability at 28.5 h, 10 µM of COC(=O)c1c(NC(=O)C(=O)NCc2ccco2)sc2c1CCCC2 [CBK269269]
87.5

---

viability at 28.5 h, 10 µM by entry:
# Experiment Summary: in vitro
# Run Parameters: human, hela cells, % viability
Only the number, expressed in %, is required.

The following compounds have reported results that may help.
>  <Compound>
CC(=O)NCCN(Cc1ccc(S(=O)(=O)N2CCOC2=O)cc1)Cc1ccoc1

>  <Unit Symbol>
%

>  <viability at 28.5 h, 10 µM>
110

$$$$
>  <Compound>
O=C(O)c1cccc(-n2ncc(-c3ccsc3)n2)c1

>  <Unit Symbol>
%

>  <viability at 28.5 h, 10 µM>
100

$$$$
>  <Compound>
Cc1csc(C(Cc2cccs2)NC(=O)C2CCOCC2)n1 (stereo not shown)

>  <Unit Symbol>
%

>  <viability at 28.5 h, 10 µM>
89.2

$$$$
>  <Compound>
CN(C)c1cccc2c(S(=O)(=O)n3c(=O)n(Cc4ccc(S(C)(=O)=O)cc4)c4ccccc43)cccc12

>  <Unit Symbol>
%

>  <viability at 28.5 h, 10 µM>
103

$$$$
>  <Compound>
CC(C)C(C(=O)Nc1ccc(S(=O)(=O)N2CCOCC2)cc1)N1C(=O)c2ccccc2C1=O (stereo not shown)

>  <Unit Symbol>
%

>  <viability at 28.5 h, 10 µM>
97.6

$$$$
>  <Compound>
CCCC(=O)Nc1ccc(OCc2ncc(C(C)C)o2)c(C(C)=O)c1

>  <Unit Symbol>
%

>  <viability at 28.5 h, 10 µM>
100

$$$$
>  <Compound>
COc1ccc(CNc2ccc(N3CCOCC3)c(C(=O)O)c2)c(OC)c1

>  <Unit Symbol>
%

>  <viability at 28.5 h, 10 µM>
91.3

$$$$
>  <Compound>
COc1ccc(Cn2nc(NC(=O)c3cnc4ccccc4n3)c3ccccc32)cc1

>  <Unit Symbol>
%

>  <viability at 28.5 h, 10 µM>
93

$$$$

Answer with reported viability at 28.5 h, 10 µM of Cc1ccc2nc(NC(=O)C(C)(C)C)nc(O)c2c1
97.7

Answer with reported viability at 28.5 h, 10 µM of Cc1[nH]c2ccc(Cl)cc2c1CC(=O)N(C)CCN(C)C
95.5

Answer with reported viability at 28.5 h, 10 µM of COc1cc(/C=C2/SC(=O)NC2=O)cc(I)c1O
92.1

---

# Experiment Summary: in vitro
# Run Parameters: human, hela cells, % viability
Label condition met when viability at 28.5 h, 10 µM is strictly below 90%; at or above that, label condition not met.

The examples below pair each entry with its known result.
>  <Molecule>
Cc1nc(-c2ccccc2)sc1CNC(=O)c1ccc([N+](=O)[O-])o1

>  <Class Name>
condition met

$$$$
>  <Molecule>
CN1CCN(NC(=O)CN(C)S(=O)(=O)c2cc(Cl)ccc2Cl)CC1

>  <Class Name>
condition not met

$$$$
>  <Molecule>
N#CCCCN1CCC(Oc2nccnc2OCC2COc3ccccc3O2)CC1 (stereo not drawn) [CBK082994T]

>  <Class Name>
condition met

$$$$

Does this molecule meet the criterion viability at 28.5 h, 10 µM < 90%? CN(C)Cc1ccccc1-n1ncc(CN2CCS(=O)(=O)CC2)n1
condition not met

---

viability at 28.5 h, 10 µM by entry:
# Experiment Summary: in vitro
# Run Parameters: human, hela cells, % viability

The following molecules have reported results that may help.
>  <Molecule>
CCCc1n[nH]c(=S)n1CC(=O)NCc1ccc(OCCC(C)C)c(OC)c1

>  <viability at 28.5 h, 10 µM>
84.4%

$$$$
>  <Molecule>
CCOc1cc(N2CCOCC2)c(OCC)cc1NC(=O)CSc1ccccc1C(=O)O

>  <viability at 28.5 h, 10 µM>
97.1%

$$$$
>  <Molecule>
c1ccc(C(NCc2cncs2)C2CCCC2)cc1 (stereo not shown)

>  <viability at 28.5 h, 10 µM>
82.6%

$$$$

Answer with reported viability at 28.5 h, 10 µM of O=C(CSc1nnc(-c2cc(Br)ccc2O)[nH]1)NCCc1ccccc1
85.8%

Answer with reported viability at 28.5 h, 10 µM of CCOC(=O)c1c(NC(=O)CSc2ncnc3sc(C)c(C)c23)sc(C)c1C
118%

Answer with reported viability at 28.5 h, 10 µM of O=C(O)c1ccc2c(c1)C(=O)N(c1cccnc1)C2=O
84.3%

Answer with reported viability at 28.5 h, 10 µM of CCn1ncc(CN2CCC(c3onc4c3CCCC4)CC2)c1C
90.2%

Answer with reported viability at 28.5 h, 10 µM of Clc1ccc2nc(-c3ccccn3)[nH]c2c1
83.8%

Answer with reported viability at 28.5 h, 10 µM of CCN(CC)c1ccc(C(=O)CN2CCC(Oc3nccnc3OCc3cccnc3)CC2)cc1 [CBK083167T]
112%

Answer with reported viability at 28.5 h, 10 µM of CCCOc1ccccc1-c1nnc(SCCC(=O)O)[nH]1
93.9%

Answer with reported viability at 28.5 h, 10 µM of COc1ccccc1CNC(=O)c1cc(-c2ccccc2)nc2ccccc12
104%

Answer with reported viability at 28.5 h, 10 µM of Cc1nn(C)c(C)c1C1CCCN1CC(=O)NCc1ccccn1 (stereo not shown)
94.9%

Answer with reported viability at 28.5 h, 10 µM of Cc1ccc(SC(C)C(=O)O/N=C(\N)c2ccccn2)cc1 (stereo not shown)
111%

Answer with reported viability at 28.5 h, 10 µM of O=C(c1ccc(Cl)cc1)c1ccc(OCC(=O)N2CCN(C(=O)c3ccco3)CC2)cc1
89.2%

---

# Experiment Summary: in vitro
# Run Parameters: human, hela cells, % viability
viability at 28.5 h, 10 µM by entry:
Only the number, expressed in %, is required.

The following compounds have reported results that may help.
>  <Compound>
Cc1cc2c(cc1Cl)C(=O)CC1(CCNCC1)O2

>  <viability at 28.5 h, 10 µM / %>
83.1

$$$$
>  <Compound>
CCc1ccc2c(COC(=O)c3cccnc3SC)cc(=O)oc2c1

>  <viability at 28.5 h, 10 µM / %>
85

$$$$
>  <Compound>
CN(C)S(=O)(=O)NC1CC(C)(C)Cc2c1cnn2-c1ccccc1 (centres unmarked)

>  <viability at 28.5 h, 10 µM / %>
94.5

$$$$
>  <Compound>
CCOc1cc2c(cc1CN(Cc1ccc3c(c1)OCO3)CC(C)O)CCC2 (centres unmarked)

>  <viability at 28.5 h, 10 µM / %>
87.2

$$$$

Answer with reported viability at 28.5 h, 10 µM of O=C(c1ccccc1)c1ccc2n1CCC2C(=O)N1CCN(c2ccccc2)CC1 (centres unmarked)
115

---

# Experiment Summary: in vitro
# Run Parameters: human, hela cells, % viability
viability at 28.5 h, 10 µM by entry:
Form entry: enter the amount, then its unit.

The following molecules have reported results that may help.
>  <Molecule>
C[C@H]1CC[C@H](C(=O)N2CCC[C@H]2C(=O)O)CC1

>  <viability at 28.5 h, 10 µM>
81.9%

$$$$
>  <Molecule>
CC(=O)Nc1ccc2nc(Nc3nc4c(F)cc(F)cc4s3)sc2c1

>  <viability at 28.5 h, 10 µM>
107%

$$$$
>  <Molecule>
O=C(Cn1cccc2cc(C3CCCNC3)nc1-2)N1CCCC1 (stereo not shown)

>  <viability at 28.5 h, 10 µM>
88.7%

$$$$
>  <Molecule>
O=C(Nc1ccccc1Br)C1CCCC1

>  <viability at 28.5 h, 10 µM>
111%

$$$$
>  <Molecule>
COc1ccc(Cc2nc3ccccc3n2CCc2ccccc2)cc1

>  <viability at 28.5 h, 10 µM>
95.2%

$$$$

Answer with reported viability at 28.5 h, 10 µM of NS(=O)(=O)c1ccc(NC(=O)c2cc3c(n(-c4ccccc4)c2=O)CCCC3=O)cc1
115%

Answer with reported viability at 28.5 h, 10 µM of O=c1[nH]c2ncc(-c3ccccc3)nc2n1CCCN1CCOCC1
111%

Answer with reported viability at 28.5 h, 10 µM of O=C(O)CC(NS(=O)(=O)c1cccc2nsnc12)C(=O)O (stereo not shown)
112%

Answer with reported viability at 28.5 h, 10 µM of O=C(Nc1ccc(OCc2ccccc2)cc1)OCC1CN(Cc2ccccc2)CCO1 (stereo not shown)
102%

Answer with reported viability at 28.5 h, 10 µM of O=C(c1c(F)cccc1F)N1CCC(c2cc3cccnc3[nH]2)CC1
91.5%
